assay_details: Hepatocyte stability, mice
Format: in vitro ADME
test_conditions: mouse, pH 7.4
Where a SMILES comes first, the peptide text is derived from it. [ ]: non-standard residue; d: D form. NMeLeu(5-OH,4R) = CN[C@@H](C[C@@H](C)CO)C(=O)O; Phe(βR-OMe) = CO[C@H](c1ccccc1)[C@H](N)C(=O)O; Trp(1-Me) = Cn1cc(C[C@H](N)C(=O)O)c2ccccc21; NMeL = CN[C@@H](CC(C)C)C(=O)O
Task for the reader: assign each of the following molecules its reported Hepatocyte Stability Mouse QH.
Answers are plain numbers, in %.

# annotated cases, reported Hepatocyte Stability Mouse QH shown
molecule: CO[C@H](c1ccccc1)[C@@H]1NC(=O)[C@H](C)NC(=O)[C@H](C[C@@H](C)CO)N(C)C(=O)[C@H](Cc2cn(Cc3cn(CCCCCn4cc(Cn5cc(C[C@@H]6NC(=O)[C@H](C(C)C)NC(=O)[C@H](CC(C)C)N(C)C(=O)[C@H](C(C)C)NC(=O)[C@H]([C@H](OC)c7ccccc7)NC(=O)[C@H](C)NC(=O)[C@H](C[C@@H](C)CO)N(C)C6=O)c6ccccc65)nn4)nn3)c3ccccc23)NC(=O)[C@H](C(C)C)NC(=O)[C@H](CC(C)C)N(C)C(=O)[C@H](C(C)C)NC1=O
output_unit: %
Hepatocyte Stability Mouse QH: 15.001

molecule: COC(c1ccccc1)C1NC(=O)C(C)NC(=O)C(CC(C)CO)N(C)C(=O)C(Cc2cn(CC=CCn3cc(CC4NC(=O)C(C(C)C)NC(=O)C(CC(C)C)N(C)C(=O)C(C(C)C)NC(=O)C(C(OC)c5ccccc5)NC(=O)C(C)NC(=O)C(CC(C)CO)N(C)C4=O)c4ccccc43)c3ccccc23)NC(=O)C(C(C)C)NC(=O)C(CC(C)C)N(C)C(=O)C(C(C)C)NC1=O (stereo not drawn)
output_unit: %
Hepatocyte Stability Mouse QH: 15.001

Let us examine a further case.
Request: Look up Hepatocyte Stability Mouse QH for this molecule: CO[C@H](c1ccccc1)[C@@H]1NC(=O)[C@H](C)NC(=O)[C@H](C[C@@H](C)CO)N(C)C(=O)[C@H](Cc2cn(C)c3ccccc23)NC(=O)[C@H](CCC(=O)N(C)C)NC(=O)[C@H](CC(C)C)N(C)C(=O)[C@H](C(C)C)NC1=O [SI-74] (cyclo(A[Phe(βR-OMe)]V[NMeL]E(NMe2)[Trp(1-Me)][NMeLeu(5-OH,4R)]))
Result: 37.632
